Each item that follows carries a reported IC50.
- Target: cdk2/cyclin E (Homo sapiens)
- Protocol Notes: Cyclin-dependent kinase assay, cdk2/cyclin E
- Condition Context: CDK2 IC50, nM, GST-pRb substrate, 10 µM ATP
Where a name gives a salt, the structure may show the parent alone.
Measured Endpoint: IC50 (nM)

[[record]]
molecule = "COC(=O)c1ccc(OC(=O)N2CCC(Nc3nc(N[C@H]4CC[C@H](N)CC4)nc4c3ncn4C3CCCC3)CC2)cc1.Cl.Cl [compound 83, dihydrochloride]"
display_unit = "nM"
observed_measurement = 44

[[record]]
molecule = "N[C@H]1CC[C@H](Nc2nc(NC3CCN(S(=O)(=O)c4ccc(C(F)(F)F)cc4[N+](=O)[O-])CC3)c3ncn(C4CCCC4)c3n2)CC1 [compound 132, dihydrochloride]"
display_unit = "nM"
observed_measurement = 35

[[record]]
molecule = "N[C@H]1CC[C@H](Nc2nc(NC3CCN(C(=O)C(c4ccccc4)c4ccccc4)CC3)c3ncn(C4CCCC4)c3n2)CC1 [compound 40, dihydrochloride]"
display_unit = "nM"
observed_measurement = 61

[[record]]
molecule = "CCCCC(=O)N1CCC(Nc2nc(N[C@H]3CC[C@H](N)CC3)nc3c2ncn3C2CCCC2)CC1 [compound 56, dihydrochloride]"
display_unit = "nM"
observed_measurement = 53

[[record]]
molecule = "N[C@H]1CC[C@H](Nc2nc(NC3CCN(C(=O)Nc4ccc(F)c(C(F)(F)F)c4)CC3)c3ncn(C4CCCC4)c3n2)CC1 [compound 203, dihydrochloride]"
display_unit = "nM"
observed_measurement = 51

[[record]]
molecule = "CC(C)=CC(=O)N1CCC(Nc2nc(N[C@H]3CC[C@H](N)CC3)nc3c2ncn3C2CCCC2)CC1 [compound 30, dihydrochloride]"
display_unit = "nM"
observed_measurement = 77

[[record]]
molecule = "N[C@H]1CC[C@H](Nc2nc(NC3CCN(C(=O)c4ccc(I)cc4)CC3)c3ncn(C4CCCC4)c3n2)CC1"
display_unit = "nM"
observed_measurement = 179

[[record]]
molecule = "CCNC(=O)N1CCC(Nc2nc(N[C@H]3CC[C@H](N)CC3)nc3c2ncn3C2CCCC2)CC1 [compound 148, dihydrochloride]"
display_unit = "nM"
observed_measurement = 61

[[record]]
molecule = "Cc1ccccc1NC(=O)N1CCC(Nc2nc(N[C@H]3CC[C@H](N)CC3)nc3c2ncn3C2CCCC2)CC1 [compound 208, dihydrochloride]"
display_unit = "nM"
observed_measurement = 8

[[record]]
molecule = "COc1cc(NC(=O)N2CCC(Nc3nc(N[C@H]4CC[C@H](N)CC4)nc4c3ncn4C3CCCC3)CC2)cc(OC)c1OC [compound 198, dihydrochloride]"
display_unit = "nM"
observed_measurement = 20

[[record]]
molecule = "COc1ccc(C(=O)N2CCC(Nc3nc(N[C@H]4CC[C@H](N)CC4)nc4c3ncn4C3CCCC3)CC2)cc1 [compound 8, dihydrochloride]"
display_unit = "nM"
observed_measurement = 137

[[record]]
molecule = "N[C@H]1CC[C@H](Nc2nc(NC3CCN(C(=O)CCC4CCCC4)CC3)c3ncn(C4CCCC4)c3n2)CC1 [compound 36, dihydrochloride]"
display_unit = "nM"
observed_measurement = 79

[[record]]
molecule = "N[C@H]1CC[C@H](Nc2nc(NC3CCN(C(=O)Nc4cc(C(F)(F)F)ccc4F)CC3)c3ncn(C4CCCC4)c3n2)CC1 [compound 200, dihydrochloride]"
display_unit = "nM"
observed_measurement = 23

[[record]]
molecule = "CCCCC(CC)C(=O)N1CCC(Nc2nc(N[C@H]3CC[C@H](N)CC3)nc3c2ncn3C2CCCC2)CC1 (mixture of isomers) [compound 57, dihydrochloride]"
display_unit = "nM"
observed_measurement = 480

[[record]]
molecule = "N[C@H]1CC[C@H](Nc2nc(NC3CCN(C(=O)Nc4ccccc4C(F)(F)F)CC3)c3ncn(C4CCCC4)c3n2)CC1 [compound 158, dihydrochloride]"
display_unit = "nM"
observed_measurement = 87

[[record]]
molecule = "N[C@H]1CC[C@H](Nc2nc(NC3CCN(C(=O)c4ccc(Cl)cc4Cl)CC3)c3ncn(C4CCCC4)c3n2)CC1"
display_unit = "nM"
observed_measurement = 155


###

- Protocol Notes: in vivo
- Condition Context: male, Hsd:ICR (CD-1), mouse, plasma, intravenous, 3 mg/kg
Measured Endpoint: concentration at 0.5 h (ng/mL)

[[record]]
molecule = "Cl.Cl.N[C@H]1CC[C@H](Nc2nc(NC3CCN(C(=O)Oc4ccc(F)cc4)CC3)c3ncn(C4CCCC4)c3n2)CC1 [compound 87, dihydrochloride]"
display_unit = "ng/mL"
observed_measurement = 141

[[record]]
molecule = "Cc1ccc(OC(=O)N2CCC(Nc3nc(N[C@H]4CC[C@H](N)CC4)nc4c3ncn4C3CCCC3)CC2)cc1.Cl.Cl [compound 82, dihydrochloride]"
display_unit = "ng/mL"
observed_measurement = 370

[[record]]
molecule = "Cl.Cl.N[C@H]1CC[C@H](Nc2nc(NC3CCN(C(=O)Oc4ccc(Cl)cc4)CC3)c3ncn(C4CCCC4)c3n2)CC1 [compound 88, dihydrochloride]"
display_unit = "ng/mL"
observed_measurement = 150

[[record]]
molecule = "Cl.Cl.N[C@H]1CC[C@H](Nc2nc(NC3CCN(S(=O)(=O)c4cccc(C(F)(F)F)c4)CC3)c3ncn(C4CCCC4)c3n2)CC1 [compound 112, dihydrochloride]"
display_unit = "ng/mL"
observed_measurement = 435

[[record]]
molecule = "Cl.Cl.N[C@H]1CC[C@H](Nc2nc(NC3CCN(C(=O)Nc4ccc(C(F)(F)F)cc4)CC3)c3ncn(C4CCCC4)c3n2)CC1 [compound 149, dihydrochloride]"
display_unit = "ng/mL"
observed_measurement = 133

[[record]]
molecule = "Cl.Cl.N[C@H]1CC[C@H](Nc2nc(NC3CCN(C(=O)Oc4ccc([N+](=O)[O-])cc4)CC3)c3ncn(C4CCCC4)c3n2)CC1 [compound 89, dihydrochloride]"
display_unit = "ng/mL"
observed_measurement = 142

[[record]]
molecule = "Cl.Cl.N[C@H]1CC[C@H](Nc2nc(NC3CCN(S(=O)(=O)c4ccc(F)cc4)CC3)c3ncn(C4CCCC4)c3n2)CC1 [compound 106, dihydrochloride]"
display_unit = "ng/mL"
observed_measurement = 185


###

- Protocol Notes: in vivo
- Condition Context: male, Hsd:ICR (CD-1), mouse, plasma, intravenous, 3 mg/kg
Measured Endpoint: concentration at 1 h (ng/mL)

[[record]]
compound = "Cc1ccc(OC(=O)N2CCC(Nc3nc(N[C@H]4CC[C@H](N)CC4)nc4c3ncn4C3CCCC3)CC2)cc1.Cl.Cl [compound 82, dihydrochloride]"
observed_measurement = 134

[[record]]
compound = "Cl.Cl.N[C@H]1CC[C@H](Nc2nc(NC3CCN(C(=O)Oc4ccc([N+](=O)[O-])cc4)CC3)c3ncn(C4CCCC4)c3n2)CC1 [compound 89, dihydrochloride]"
observed_measurement = 52.4

[[record]]
compound = "Cl.Cl.N[C@H]1CC[C@H](Nc2nc(NC3CCN(C(=O)Oc4ccc(F)cc4)CC3)c3ncn(C4CCCC4)c3n2)CC1 [compound 87, dihydrochloride]"
observed_measurement = 65

[[record]]
compound = "Cl.Cl.N[C@H]1CC[C@H](Nc2nc(NC3CCN(S(=O)(=O)c4ccc(F)cc4)CC3)c3ncn(C4CCCC4)c3n2)CC1 [compound 106, dihydrochloride]"
observed_measurement = 63.3

[[record]]
compound = "Cl.Cl.N[C@H]1CC[C@H](Nc2nc(NC3CCN(C(=O)Oc4ccc(Cl)cc4)CC3)c3ncn(C4CCCC4)c3n2)CC1 [compound 88, dihydrochloride]"
observed_measurement = 74.6

[[record]]
compound = "Cl.Cl.N[C@H]1CC[C@H](Nc2nc(NC3CCN(S(=O)(=O)c4cccc(C(F)(F)F)c4)CC3)c3ncn(C4CCCC4)c3n2)CC1 [compound 112, dihydrochloride]"
observed_measurement = 175

[[record]]
compound = "Cl.Cl.N[C@H]1CC[C@H](Nc2nc(NC3CCN(C(=O)Nc4ccc(C(F)(F)F)cc4)CC3)c3ncn(C4CCCC4)c3n2)CC1 [compound 149, dihydrochloride]"
observed_measurement = 59.8


###

- Target: cdk2/cyclin E (Homo sapiens, UniProt P24941)
- Protocol Notes: Cyclin-dependent kinase assay, cdk2/cyclin E
- Condition Context: CDK2 IC50, nM, GST-pRb substrate, 10 µM ATP
Structures can show the parent of a compound that is named as a salt.
Class (by IC50) -- A = under 20 nM, B = from 20 nM up to 50 nM, C = 50 nM and over

[[record]]
molecule = "N[C@H]1CC[C@H](Nc2nc(NC3CCN(C(=O)Nc4cccc(Cl)c4)CC3)c3ncn(C4CCCC4)c3n2)CC1 [compound 165, dihydrochloride]"
assigned_label = "B"

[[record]]
molecule = "N[C@H]1CC[C@H](Nc2nc(NC3CCN(S(=O)(=O)c4cccc(C(=O)O)c4)CC3)c3ncn(C4CCCC4)c3n2)CC1 [compound 135, dihydrochloride]"
assigned_label = "A"

[[record]]
molecule = "C=CCOC(=O)N1CCC(Nc2nc(N[C@H]3CC[C@H](N)CC3)nc3c2ncn3C2CCCC2)CC1 [compound 95, dihydrochloride]"
assigned_label = "B"

[[record]]
molecule = "Cl.Cl.N[C@H]1CC[C@H](Nc2nc(NC3CCN(C(=O)Oc4ccc([N+](=O)[O-])cc4)CC3)c3ncn(C4CCCC4)c3n2)CC1 [compound 89, dihydrochloride]"
assigned_label = "B"

[[record]]
molecule = "C#CCOC(=O)N1CCC(Nc2nc(N[C@H]3CC[C@H](N)CC3)nc3c2ncn3C2CCCC2)CC1 [compound 102, dihydrochloride]"
assigned_label = "B"

[[record]]
molecule = "Cc1ccc(NC(=O)N2CCC(Nc3nc(N[C@H]4CC[C@H](N)CC4)nc4c3ncn4C3CCCC3)CC2)cc1 [compound 183, dihydrochloride]"
assigned_label = "C"

[[record]]
molecule = "COc1cccc(NC(=O)N2CCC(Nc3nc(N[C@H]4CC[C@H](N)CC4)nc4c3ncn4C3CCCC3)CC2)c1 [compound 155, dihydrochloride]"
assigned_label = "B"

[[record]]
molecule = "Cc1noc(C)c1S(=O)(=O)N1CCC(Nc2nc(N[C@H]3CC[C@H](N)CC3)nc3c2ncn3C2CCCC2)CC1 [compound 110, dihydrochloride]"
assigned_label = "A"

[[record]]
molecule = "N[C@H]1CC[C@H](Nc2nc(NC3CCN(C(=O)Nc4ccc(Br)cc4)CC3)c3ncn(C4CCCC4)c3n2)CC1 [compound 162, dihydrochloride]"
assigned_label = "C"

